B1: library; a variant is named by its letters at N, in order (parent)
chain: ACATTTGTTGATACAACCATAAAATGATAATTACACCCATAAATTGATAATTATCACACCCANNNNNNNNNNNNNNCTCTGATCATAGTCAGACCAACATTGCTACGACCCGTATTCGCACCGACAC

variants of: B1; experiment: relative integration efficiency (T-LR orientation) vs wild-type transposon end (log2 (normalized fold change)); transposon end mutated: right end (5 bp flank + 75 bp right end); higher = more efficient transposition; conditions: with VchCAST RNA-guided transposition machinery (E. coli BL21(DE3) host, lacZ target)
attribute_measured: relative integration efficiency (log2)
Numbers only.

In the examples that follow, each entry is paired with its recorded relative integration efficiency (log2).
> print(dat)
                    var  numeric.result
 1       TAAATTCATATTGC            2.62
 2  ATTTAACTATAACG G26C            1.17
 3       TAAACTGATATTGC           0.318
 4  TAAATTGATATTGC T12A          -0.916
 5   ATTTAACTATAACG T8C         -0.0325
 6  ATTTAACTATAACG T40A            1.82
 7  TAAATTGATATTGC C57G            1.55
 8  TAAATTGATATTGC A42G           -1.01
 9  TAAATTGATATTGC T54C          -0.015
10  TAAATTGATATTGC A35G          -0.531

List reported relative integration efficiency (log2) for each of these variants:
1. ATTTAACTATAACG A21C
2. TAAATTGATATTGC C18G
3. TAAATTGAGATTGC
4. TAAATGTCGATTGC
5. TAAATTGTATATGC
6. TAAATTGATATTGC A21C
7. ATTTAACTATAACG A56T
8. ATTTAACTATAACG A49T

Reply:
1. 1.89
2. -0.152
3. 0.765
4. 2.16
5. 0.948
6. -0.846
7. 2.57
8. 2.31

Values compiled from the supplement of paper PMC10201428.
